- Test system: SF-539 CNS
- procedure-details: NCI-60 one-dose screen, 48 h (100 = growth as untreated, 0 = no growth, -100 = all killed)
- particulars: 10 µM unless noted
About 83,000 compounds went through this panel and 20% of them were active in at least one assay; those are over-represented in the sample as a whole.
# growth values compiled below
assay-readout: growth (%)

COc1cc(OC)c2cc(C(=O)c3ccc(C#N)cc3)c(=O)oc2c1 | 82.5
CCCCNC(=O)c1ccc(OCC)cc1 | 104
O=C(O)c1ccc(OCc2ccccc2)cc1 | 97.5
CCCCCC(=O)OCCC1CCCCC1 | 97.8

---

Property: growth; scope: individual compounds
- Tested on: COLO 205 colon
- procedure-details: NCI-60 one-dose screen, 48 h (100 = growth as untreated, 0 = no growth, -100 = all killed)
- particulars: 10 µM unless noted
Compounds without any hit were thinned out: in the full panel of roughly 83,000, 20% have a hit.
assay-readout: growth (%)

COC1OC(COC(C)=O)C(OC(C)=O)C(OC(C)=O)C1OC(C)=O (centres undefined) | 98.7
Nc1cc(N)ncn1 | 104
Cc1ccc(O)c(N)c1 | 117
CC(C)c1ccccc1NC(=O)N1CCC(C(C)C)CC1 | 117

---

- Tested on: NCI-H226 lung
- procedure-details: NCI-60 one-dose screen, 48 h (100 = growth as untreated, 0 = no growth, -100 = all killed)
- particulars: 10 µM unless noted
About 83,000 compounds went through this panel and 20% of them were active in at least one assay; those are over-represented in the sample as a whole. Calls of active or inactive are those of the source. Rule for the calls: active = growth percent below 10; inactive = the rest.
assay-readout: growth

O=C1C=Cc2ccccc2/C1=C/c1[nH]c(=O)[nH]c1O | 45.2% (inactive)
CN(C)c1ncnc2c1cnn2C | 98.9% (inactive)
O=C(N/N=C\c1ccc(Cl)cc1Cl)c1ccncc1 | 102% (inactive)
O=C(OCc1ccccc1)n1nnc2ccccc21 | 108% (inactive)
NC(CO)(CO)c1ccccc1 | 96.6% (inactive)
C=CCN1CCCC1=O | 102% (inactive)
ClCC(Cl)[C@@H]1CC2C=CC1C2 (stereo not given in full) | 91.7% (inactive)
COc1ccc(-c2csc(NC(=O)Nc3nc(-c4ccc(OC)cc4)cs3)n2)cc1 | 70.6% (inactive)
O=C(c1ccc(Cl)cc1)N1CCCCC1 | 95.4% (inactive)
C=C(C)[C@@H]1CC[C@]2(CO)CC[C@]3(C)[C@H](CC[C@@H]4[C@@]5(C)CC[C@H](O)C(C)(C)[C@@H]5CC[C@]43C)[C@@H]12 | 37.5% (inactive)
CCOc1ccccc1NC(=O)CCl | 86.3% (inactive)
CCOC(=O)/C(C#N)=C\c1c[nH]c2ccccc12 | 79.8% (inactive)
CC12CCC3c4ccc(O)cc4CCC3C1CCC2=O (stereo not given) | 97% (inactive)
S=C(NCc1ccccc1)N1CCC(CCCC2CCN(C(=S)NCc3ccccc3)CC2)CC1 | 91.4% (inactive)
CC(C)Sc1ncnc2nc[nH]c12 | 102% (inactive)

---

- System: MDA-MB-231 breast
- procedure-details: NCI-60 one-dose screen, 48 h
- particulars: 10 µM unless noted
About 83,000 compounds went through this panel and 20% of them were active in at least one assay; those are over-represented in the sample as a whole. Activity calls are given as the source filed them. Rule for the calls: active = growth percent below 10; inactive = the rest.
Outcomes: active, inactive

CC(=O)OCC1OC(n2cnc3c(=S)nc(N)[nH]c32)C(OC(C)=O)C1OC(C)=O (stereo not drawn) | inactive
COc1ccc2c(Cl)cc(NC(=O)Nc3c(C)cccc3C)nc2c1 | inactive
Nc1ccc(F)c(Cl)c1F | inactive
CCC(C)c1c(N)n(S(=O)(=O)c2ccc(C)cc2)oc1=O (stereo not drawn) | inactive
CCOC(=O)c1c[nH][nH]c1=O | inactive
O=Cc1c(O)c2ccccc2[nH]c1=O | inactive
COC1CC(OC(=O)c2ccc([N+](=O)[O-])cc2)C(COC(=O)c2ccc([N+](=O)[O-])cc2)O1 (stereo not drawn) | inactive
CN(C)Cc1ccccn1 | inactive
N=C(N)c1nn(C2OC(CO)C(O)C2O)c2nc[nH]c(=O)c12 (stereo not drawn) | active
COc1nc2ccccc2s1 | inactive
S=CN1CCCCC1 | inactive
O=C(NCCc1ccccc1)/C(=C\c1ccc(Cl)cc1Cl)NC(=O)c1ccccc1 | inactive
CSc1nsc(N)n1 | inactive
Cc1cc(C(=O)NN)c(C#N)c(=O)[nH]1 | inactive
COc1cc(OC)c(NC(=O)C(Sc2nc(C)cc(C)c2C#N)c2ccccc2)cc1Cl (stereo not drawn) | inactive
C=COC(=O)CCOCC(CC)CCCC (stereo not drawn) | inactive
NNc1ncnc2c1ncn2C1OC(CO)C(O)C1O (stereo not drawn) | inactive
CCCCOC(=O)c1ccc(NC(=O)CCl)cc1 | active
CC(=O)[C@@]1(O)CC[C@H]2[C@@H]3CC[C@@H]4CC(=O)CC[C@]4(C)[C@H]3[C@@H](O)C[C@@]21C | inactive
CC1(C)CC(=O)C=C(N)C1 | inactive
NC(=O)OCCO | inactive
CN(C)c1ccc2c(N(C)C)cc(N(C)C)nc2c1 | inactive
N#Cc1ccc(OC(=O)Nc2c(Cl)cc(Cl)cc2Cl)cc1 | inactive
O=C(Nc1cccc(Cl)c1)c1ccc(Cl)cc1Cl | inactive
CCC(/C=C\C(C)=O)CC | inactive
CCOC(=O)c1ccc(Nc2sc(C(=O)c3ccc(Br)cc3)c(N)c2C#N)cc1 | inactive
C/C(=N\Nc1ccc([N+](=O)[O-])cc1[N+](=O)[O-])c1ccc(Br)cc1 | inactive
CCOC(=O)c1ccc(NC(=O)Nc2nccs2)cc1 | active
CCCCc1ccc2nc(NC(=O)OC)[nH]c2c1 | inactive
O=C(CCl)Nc1ccccc1SCc1cc(Cl)cc2c1OCOC2 | inactive
COc1cc(-c2ccc(NC(=O)CC(C)=O)c(OC)c2)ccc1NC(=O)CC(C)=O | inactive
Nc1nc(N)nc(N2CCCCC2)n1 | inactive
CC1(C)C2CCC1(C)C1(C2)OCCS1 (stereo not drawn) | inactive
CCCC(=O)CC(=O)c1ccccc1 | inactive
O=[N+]([O-])c1ccc(-c2nc(N(CCO)CCO)c3ccccc3n2)o1 | active
Cn1c(=O)c2[nH]c(CCCCC(=O)O)nc2n(C)c1=O | inactive
O=C(CC(CC(=O)c1ccccc1)c1ccccn1)c1ccccc1 | inactive
S=c1nc(-c2ccccn2)c(-c2ccccn2)n[nH]1 | inactive
CCCCCCCCCCCCCC/C=C\C(CC(=O)O)C(=O)O (stereo not drawn) | inactive
Nc1cccc2cccc(O)c12 | inactive
O=[n+]1ccn([O-])c2ccccc21 | inactive
Nc1ncnc(Nc2ccccc2)n1 | inactive
Clc1cccc(Cl)c1CSc1nc2ccccc2n2cccc12 | inactive

---

Overview of reported growth across a group of molecules:
- System: KM12 colon
- procedure-details: NCI-60 one-dose screen, 48 h (100 = growth as untreated, 0 = no growth, -100 = all killed)
- particulars: 10 µM unless noted
- Protocol: Growth inhibition of the KM12 human tumor cell line is measured as a screen for anti-cancer activity. Cells are grown in 96 well plates and exposed to the test compound for 48 hours. Compounds are tested at a single concentration, which is 10^-5 M for most compounds. The reported endpoint is percent growth (GI% or GIPRCNT), where numbers from 0 - 100% represent growth inhibition, and numbers from -100% - 0 represent cell death. For example, a value of 40 represents 60% growth inhibition. […]
This is part of a sample that, as a whole, favours compounds with a hit. Of some 83,000 tested, about 20% had one in any assay.
assay-readout: growth (%)

O=C(O)c1cccc(-n2ncc(Cl)c(Cl)c2=O)c1 | 77.2
CC1(C)CCC(C)(C)NC(=S)N1 | 99.1
O=Cc1ccc(F)cc1 | 109
CCCNS(=O)(=O)c1ccc(Cl)cc1 | 99.6
NNc1ncnc2nc[nH]c12 | 46
Cc1nc(C)c(C(=O)O)cc1C(=O)O | 117

---

- System: RXF 393 renal
- procedure-details: NCI-60 one-dose screen, 48 h (100 = growth as untreated, 0 = no growth, -100 = all killed)
- particulars: 10 µM unless noted
This is part of a sample that, as a whole, favours compounds with a hit. Of some 83,000 tested, about 20% had one in any assay.
assay-readout: growth (%)

CCC1CCC(C)NC1 (centres undefined) | 107
O=C(O)c1c[nH]c2ccccc2c1=O | 116
CC(=O)NC(CCC(=O)c1ccccc1)C(=O)O (centres undefined) | 105
O=C(OCc1ccccc1)n1nnc2ccccc21 | 113
CC(C)Sc1ncnc2nc[nH]c12 | 93
CCN1CCCC(N2c3ccccc3Sc3ccccc32)C1 (centres undefined) | 104
Nc1c(O)c(S(=O)(=O)O)c(O)c2c1C(=O)c1ccccc1C2=O | 75.3
ClCC(Cl)C1CCC(Cl)C(Cl)C1 (centres undefined) | 125
CCCCCCCCCc1ccc(OC(C)=O)cc1 | 111
CCOc1ccccc1NC(=O)CCl | 93.9
CC(=O)c1cccs1 | 96.6
C#CC(O)c1ccccc1 (centres undefined) | 112
O=S1(=O)c2ccccc2Oc2ccccc21 | 90.7
COc1cccc2c1Cc1ccccc1-2 | 97.9
CC(=O)NC(CCc1ccc(Cl)c(Cl)c1)c1cccc(O)c(=O)c1 (centres undefined) | 18.6
S=C(NCc1ccccc1)N1CCC(CCCC2CCN(C(=S)NCc3ccccc3)CC2)CC1 | 107
CCOC(=O)C1(N)CCCCC1 | 121
CC1(C)CCC(C)(C)NC(=S)N1 | 112
Cc1ccc2nc(-c3ccc(N=Cc4ccccc4O)cc3)sc2c1 | 83.4
Nc1ccc(F)cc1F | 92.2
C/C(O)=C(/C=N/C(=S)Nc1ccccc1)C(=O)Nc1ccccc1C | 104
CCCCN(C(=O)CC)c1ccccc1 | 115
CCCCCCCCCCCCSC1=C(Cl)C(=O)C(OC)=C(OC)C1=O | 34.1
CCNC(=O)OCCc1c2ccccc2nc2ccccc12 | 97.4
COc1ccc(-c2csc(NC(=O)Nc3nc(-c4ccc(OC)cc4)cs3)n2)cc1 | 98.5
CCOS(=O)(=O)c1ccc([N+](=O)[O-])cc1 | 120
CCN(C(C)=O)c1ccc([N+](=O)[O-])cc1 | 106
CC(=O)OCC1CCC(COC(C)=O)CC1 (centres undefined) | 106
O=C(c1ccccc1)c1ccc(-c2ccc(O)cc2)cc1 | -4.28
